- Tested on: Enterococcus faecalis
- test_details: In vitro for antibacterial activity against Enterococcus faecalis strain STCO-19
- Format: functional
parameter_measured: MIC (µg/mL)

[[record]]
molecule = "CCCCc1ccc(N2CC(CNC(C)=O)OC2=O)cc1 (racemic)"
measurement_qualifier = "="
value_measured = 4

[[record]]
molecule = "CC(=O)NC[C@H]1CN(c2ccc(S(C)(=O)=O)cc2)C(=O)O1"
measurement_qualifier = "="
value_measured = 4

[[record]]
molecule = "CC(=O)NC[C@H]1CN(c2ccc([N+](=O)[O-])cc2)C(=O)O1"
measurement_qualifier = "="
value_measured = 2

[[record]]
molecule = "CC(=O)NC[C@H]1CN(c2ccc([S+]([O-])CF)cc2)C(=O)O1 (stereo partly specified)"
measurement_qualifier = "="
value_measured = 8

[[record]]
molecule = "CC(=O)NCC1CN(c2ccc(CO)cc2)C(=O)O1 (racemic)"
measurement_qualifier = "="
value_measured = 16

[[record]]
molecule = "CC(=O)NC[C@H]1CN(c2ccc([S@+](C)[O-])cc2)C(=O)O1"
measurement_qualifier = "="
value_measured = 16

[[record]]
molecule = "CC(=O)NC[C@H]1CN(c2ccc(C(=O)CF)cc2)C(=O)O1"
measurement_qualifier = "="
value_measured = 2

[[record]]
molecule = "CC(=O)NC[C@H]1CN(c2ccc(C(=O)CC#N)cc2)C(=O)O1"
measurement_qualifier = "="
value_measured = 64

[[record]]
molecule = "CC(=O)NCC1CN(c2ccc(F)cc2)C(=O)O1 (racemic)"
measurement_qualifier = ">"
value_measured = 64

[[record]]
molecule = "CCC[S+]([O-])c1ccc(N2C[C@H](CNC(C)=O)OC2=O)cc1 (stereo partly specified)"
measurement_qualifier = "="
value_measured = 64

[[record]]
molecule = "CC(=O)NC[C@H]1CN(c2ccc(N(C)C)cc2)C(=O)O1"
measurement_qualifier = "="
value_measured = 16

